Listed below: RLU values for each entry.
- ASSAY TARGET: T1, apical domain of human CD71 (human, UniProt P02786 189-383, limits assumed)
- T1 construct: domain: apical domain; Screen 4 panned on human apical domains, the ELISA text says only 'apical domain'
- T1 sequence (P02786 189-383 limits assumed): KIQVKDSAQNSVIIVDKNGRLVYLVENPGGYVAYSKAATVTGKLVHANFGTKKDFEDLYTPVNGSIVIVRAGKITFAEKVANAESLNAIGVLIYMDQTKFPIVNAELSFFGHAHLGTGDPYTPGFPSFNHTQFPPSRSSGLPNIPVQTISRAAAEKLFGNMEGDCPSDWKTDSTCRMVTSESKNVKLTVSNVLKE
- TEST NAME: primary ELISA; note: test concentration or dose not given here
Write down the numeric answer in RLU and omit the unit.

BINDER | REPORTED VALUE
CD71-binding FN3 domain of SEQ ID NO: 528 (designed binder) MLPAPKNLVVSRVTEDSARLSWTAPDAAFDSFFIGYLEPQPPGEAITLLVPGSERSYDLTGLKPGTEYNVTIQGVKGGFPSIPLIAIFTT | 5.58e+06
CD71-binding FN3 domain of SEQ ID NO: 493 (designed binder) MLPAPKNLVVSRVTEDSARLSWTAPDAAFDSFFIGYLEPQPPGEAILLAVPGSERSYDLTGLKPGTEYNVTIQGVKGGFPSLPLVAHFTT | 2.5e+06
CD71-binding FN3 domain of SEQ ID NO: 513 (designed binder) MLPAPKNLVVSRVTEDSARLSWTAPDAAFDSFFIGYLEPQPPGEAISLYVPGSERSYDLTGLKPGTEYNVTIQGVKGGFPSLPLAAQFTT | 2.72e+06
CD71-binding FN3 domain of SEQ ID NO: 532 (designed binder) MLPAPKNLVVSRVTEDSARLSWTAPDAAFDSFDINYDELSGEGEAIALFVPGSERSYDLTGLKPGTEYWVSIGGVKGGRFSEPLYARFTT | 4.59e+06

Then there is this binder:
### Prompt Param item = CD71-binding FN3 domain of SEQ ID NO: 535 (designed binder) MLPAPKNLVVSRVTEDSARLSWTAPDAAFDSFFIGYLEPQPPGEAIHLQVPGSERSYDLTGLKPGTEYNVTIQGVKGGFPSDPLVAKFTT ; retrieve measured RLU.
### Response 3.38e+06
